B1: MYBL2 (parent)
chain: FSPSQFLNFWNKQDTLELESPSLT

variants of: B1; experiment: protein stability index of a GFP-peptide fusion (GPS, HEK-293T) (PSI 1-6); higher = more stable; conditions: c terminus: a fixed tail appended;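 further: lentivirally expressed fusions sorted by FACS into six bins by GFP to DsRed ratio, PSI derived from sequencing read proportions per bin multiplied by bin number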
PROPERTY LABEL: protein stability index
One number for each entry.

Provide each entry's protein stability index from the list below.
1. T15G
2. P3M
3. D14M
4. N11R
5. P21W

[A]
3.51
2.3
2.63
2.48
3.86
